We begin with a simple list: items and their reported log10 Vd.
experiment: Volume of distribution at steady state in human after iv administration; assay type: ADME, organism-based; conditions: in vivo, read-out: Vdss
ATTRIBUTE MEASURED: log10 Vd (log10 of the value in L/kg)

COMPOUND: CO[C@@]1(NC(=O)CSC(F)F)C(=O)N2C(C(=O)O)=C(CSc3nnnn3CCO)CO[C@@H]21 [FLOMOXEF]
REPORTED RESULT: -0.28
//
COMPOUND: COc1cccc2c1C(=O)c1c(O)c3c(c(O)c1C2=O)C[C@@](O)(C(=O)CO)C[C@@H]3O[C@H]1C[C@H](N)[C@H](O)[C@H](C)O1 [DOXORUBICIN]
REPORTED RESULT: 1.40
//
COMPOUND: CC(C)N(CCC(C(N)=O)(c1ccccc1)c1ccccn1)C(C)C (stereo not drawn) [DISOPYRAMIDE]
REPORTED RESULT: -0.11
//
COMPOUND: NC(=O)c1csc([C@@H]2O[C@H](CO)[C@@H](O)[C@H]2O)n1 [TIAZOFURIN]
REPORTED RESULT: -0.05
//
COMPOUND: C[C@@H](O)[C@H]1C(=O)N2C(C(=O)O)=C(COC(N)=O)S[C@H]12
REPORTED RESULT: -0.60
//
COMPOUND: O=c1ccc2ccccc2o1 [COUMARIN]
REPORTED RESULT: 0.34
//
COMPOUND: CC[C@]1(O)C[C@@H]2CN(CCc3c([nH]c4ccccc34)[C@@](C(=O)OC)(c3cc4c(cc3OC)N(C)[C@H]3[C@@](O)(C(=O)OC)[C@H](OC(C)=O)[C@]5(CC)C=CCN6CC[C@]43[C@@H]65)C2)C1 [VINBLASTINE]
REPORTED RESULT: 1.38
//
COMPOUND: COc1ccc2c(c1)c(CC(=O)O)c(C)n2C(=O)c1ccc(Cl)cc1 [INDOMETHACIN]
REPORTED RESULT: -0.59

---

assay: Volume of distribution at steady state in human after iv administration; format: ADME, organism-based; conditions: in vivo, read-out: Vdss
Rule: Vd under 0.9 L/kg gives No, otherwise Yes.

MOLECULE: N[C@H](C(=O)O)[C@@H]1CC(Cl)=NO1
ANSWER LABEL: No
--
MOLECULE: C#CCCCC(=O)c1cc(C(C)(C)C)c(O)c(C(C)(C)C)c1
ANSWER LABEL: Yes
--
MOLECULE: C[C@@H](O)[C@H]1C(=O)N2C(C(=O)[O-])=C(SC3Cn4cnc[n+]4C3)[C@H](C)[C@H]12 (some centres not stated)
ANSWER LABEL: No
--
MOLECULE: CC#CCC(C)[C@H](O)/C=C/[C@@H]1[C@H]2C/C(=C/CCCC(=O)O)C[C@H]2C[C@H]1O (some centres not stated)
ANSWER LABEL: No
--
MOLECULE: CC(=O)CC(c1ccccc1)c1c(O)c2ccccc2oc1=O (configuration not stated)
ANSWER LABEL: No
--
MOLECULE: N[C@@H](Cc1ccc(O)c(O)c1)C(=O)O
ANSWER LABEL: Yes
--
MOLECULE: C[C@@H]1[C@H](O)[C@@H](C)/C=C/C=C/C=C/C=C/C=C/C=C/C=C/[C@H](O[C@@H]2O[C@H](C)[C@@H](O)[C@H](N)[C@@H]2O)C[C@@H]2O[C@](O)(C[C@@H](O)C[C@@H](O)[C@H](O)CC[C@@H](O)C[C@@H](O)CC(=O)O[C@H]1C)C[C@H](O)[C@H]2C(=O)O
ANSWER LABEL: Yes
--
MOLECULE: NC(=O)c1cc[n+](COC[n+]2ccccc2/C=N/O)cc1
ANSWER LABEL: No
--
MOLECULE: CO/N=C(\C(=O)N[C@@H]1C(=O)N2C(C(=O)O)=C(CSc3nc(=O)c(=O)[nH]n3C)CS[C@H]12)c1csc(N)n1
ANSWER LABEL: No
--
MOLECULE: CO/N=C(\C(=O)N[C@@H]1C(=O)N2C(C(=O)[O-])=C(C[N+]34CCC(C(N)=O)(CC3)CC4)CS[C@H]12)c1nsc(N)n1
ANSWER LABEL: No
--
MOLECULE: CC[C@]1(O)C[C@H]2CN(CCc3c([nH]c4ccccc34)[C@@](C(=O)OC)(c3cc4c(cc3OC)N(C=O)[C@H]3[C@@](O)(C(=O)OC)[C@H](OC(C)=O)[C@]5(CC)C=CCN6CC[C@]43[C@@H]65)C2)C1
ANSWER LABEL: Yes
--
MOLECULE: Cc1cccnc1NS(=O)(=O)c1ccc(C#Cc2ccc(O)c(C(=O)O)c2)cc1
ANSWER LABEL: No
--
MOLECULE: O=C1CN=C(c2ccccc2Cl)c2cc([N+](=O)[O-])ccc2N1
ANSWER LABEL: Yes
--
MOLECULE: COC(=O)C1=C(C)NC(C)=C(C(=O)OCCN(C)Cc2ccccc2)C1c1cccc([N+](=O)[O-])c1 (configuration not stated)
ANSWER LABEL: No
--
MOLECULE: CCCCCNC(=O)c1coc([C@H]2[C@@H](Cc3ccccc3CCC(=O)O)[C@@H]3CC[C@H]2O3)n1
ANSWER LABEL: Yes
--
MOLECULE: CN1C(C(=O)Nc2nccs2)=C(O)c2ccccc2S1(=O)=O
ANSWER LABEL: No
--
MOLECULE: CN(C)CCCC1(c2ccc(F)cc2)OCc2cc(C#N)ccc21 (configuration not stated)
ANSWER LABEL: Yes
--
MOLECULE: CCC1(C)CC(=O)NC1=O (configuration not stated) [ETHOSUXIMIDE]
ANSWER LABEL: No
--
MOLECULE: CN1C(=O)OC(C)(C)C1=O
ANSWER LABEL: No
--
MOLECULE: CO[C@@]1(NC(=O)C(C(=O)[O-])c2ccc(O)cc2)C(=O)N2C(C(=O)[O-])=C(CSc3nnnn3C)CO[C@@H]21.[Na+].[Na+] (some centres not stated) [MOXALACTAM DISODIUM]
ANSWER LABEL: No
--
MOLECULE: CC(C)NCC(O)COc1cccc2ccccc12 (configuration not stated)
ANSWER LABEL: Yes
--
MOLECULE: CCCC(CCC)C(=O)O
ANSWER LABEL: No
--
MOLECULE: C[C@@H](O)[C@H]1C(=O)N2C(C(=O)O)=C(SCCOC(N)=O)S[C@H]12
ANSWER LABEL: No
--
MOLECULE: O=P(O)(O)C(Sc1ccc(Cl)cc1)P(=O)(O)O
ANSWER LABEL: Yes
--
MOLECULE: CO/N=C(\C(=O)N[C@@H]1C(=O)N2C(C(=O)O)=C(CSc3nc(C)c(CC(=O)O)s3)CS[C@H]12)c1csc(N)n1
ANSWER LABEL: No

---

assay: Volume of distribution at steady state in monkey after iv administration; format: ADME, organism-based; details: macaca, in vivo, read-out: Vdss
ATTRIBUTE MEASURED: Vd (L/kg)

COMPOUND: Cc1c(C)c2c(c(C)c1O)CCC(C)(COc1ccc(CC3SC(=O)NC3=O)cc1)O2 (centres undefined)
ATTRIBUTE MEASURED: Vd
MEASUREMENT UNITS: L/kg
REPORTED RESULT: 0.71
//
COMPOUND: CO[C@@]1(NC(=O)C2SC(=C(C(N)=O)C(=O)O)S2)C(=O)N2C(C(=O)O)=C(CSc3nnnn3C)CS[C@@H]21 (some centres undefined)
ATTRIBUTE MEASURED: Vd
MEASUREMENT UNITS: L/kg
REPORTED RESULT: 0.17
//
COMPOUND: CCCC(CCC)C(=O)O
ATTRIBUTE MEASURED: Vd
MEASUREMENT UNITS: L/kg
REPORTED RESULT: 0.15
//
COMPOUND: O=C1NC(=O)C(c2ccccc2)(c2ccccc2)N1
ATTRIBUTE MEASURED: Vd
MEASUREMENT UNITS: L/kg
REPORTED RESULT: 7.8
//
COMPOUND: CCOC(=O)C1(c2ccccc2)CCN(C)CC1
ATTRIBUTE MEASURED: Vd
MEASUREMENT UNITS: L/kg
REPORTED RESULT: 5.9
//
COMPOUND: CO/N=C(\C(=O)N[C@@H]1C(=O)N2C(C(=O)O)=C(CSc3nc(C)c(CC(=O)O)s3)CS[C@H]12)c1csc(N)n1
ATTRIBUTE MEASURED: Vd
MEASUREMENT UNITS: L/kg
REPORTED RESULT: 0.15
//
COMPOUND: CN1C(=O)OC(C)(C)C1=O
ATTRIBUTE MEASURED: Vd
MEASUREMENT UNITS: L/kg
REPORTED RESULT: 0.66
//
COMPOUND: CCCCCNC(=O)c1coc([C@H]2[C@@H](Cc3ccccc3CCC(=O)O)[C@@H]3CC[C@H]2O3)n1
ATTRIBUTE MEASURED: Vd
MEASUREMENT UNITS: L/kg
REPORTED RESULT: 5.5
//
COMPOUND: CN(C)C(=O)CCSC(SCCC(=O)O)c1cccc(/C=C/c2ccc3ccc(Cl)cc3n2)c1 (centres undefined)
ATTRIBUTE MEASURED: Vd
MEASUREMENT UNITS: L/kg
REPORTED RESULT: 0.32
